Quick reference: IC50 of the listed items.
test system: PA-1; assay: cells; assay type: functional, cell-based; conditions: Homo sapiens;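 note: IC50 for suppression of PA-1 cell proliferation, determined with a cell viability read-out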
Description: SANGER: Inhibition of human PA-1 cell growth in a cell viability assay.

# annotated cases, reported IC50 shown
CC1=C(/C=C/C(C)=C/C=C/C(C)=C/C(=O)O)C(C)(C)CCC1 : > 10000 nM
COC(=O)[C@H](CCSC)NC(=O)c1ccc(NC[C@@H](N)CS)cc1-c1ccccc1 : > 1020 nM

Alright, here's another molecule for you.
For the molecule NC(=O)c1ccc(N(C(N)=O)c2c(F)cccc2F)nc1-c1ccc(F)cc1F , what IC50 is on record?
> 2000 nM

----------
test system: C-33-A; experiment: cells; type: functional, cell-based; settings: Homo sapiens;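 note: cell viability assay measuring growth inhibition of C-33-A cells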
Description: SANGER: Inhibition of human C-33-A cell growth in a cell viability assay.
pIC50: −log10 of the molar value.
Measured Attribute: pIC50

COC(=O)[C@H](CCSC)NC(=O)c1ccc(NC[C@@H](N)CS)cc1-c1ccccc1 : < 5.99
Cc1ccc(C(=O)Nc2ccc(CN3CCN(C)CC3)c(C(F)(F)F)c2)cc1C#Cc1cnc2cccnn12 : < 6.29

Entry NC1(c2ccc(-c3nc4ccn5c(=O)[nH]nc5c4cc3-c3ccccc3)cc2)CCC1 has what pIC50?
< 5.40

----------
test system: COLO-668; assay: cells; assay type: functional, cell-based, Homo sapiens; details: Homo sapiens, COLO-668
Description: SANGER: Inhibition of human COLO-668 cell growth in a cell viability assay.
Where a SMILES comes first, the peptide text is derived from it. The star is where a group is joined. Cbz = O=C(OCc1ccccc1)*
# reported IC50; entries follow

I have this compound here, COC(=O)[C@H](CCSC)NC(=O)c1ccc(NC[C@@H](N)CS)cc1-c1ccccc1 , and I need its recorded IC50.
> 1020 nM

Quick check: IC50 of NC1(c2ccc(-c3nc4ccn5c(=O)[nH]nc5c4cc3-c3ccccc3)cc2)CCC1 ?
> 4000 nM

What value of measured IC50 is listed for Cc1ccc(C(=O)Nc2ccc(CN3CCN(C)CC3)c(C(F)(F)F)c2)cc1C#Cc1cnc2cccnn12 ?
> 512 nM

I am curious: what IC50 value has been reported for O=S(=O)(O)c1ccc2cc(/N=N/c3cc(S(=O)(=O)O)c4cccnc4c3O)ccc2c1 ?
> 16000 nM

Need IC50, item Cc1ccc(-n2nc(C(C)(C)C)cc2NC(=O)Nc2ccc(OCCN3CCOCC3)c3ccccc23)cc1
> 10000 nM

Record request: IC50 value, item CC(C)C[C@@H](C=O)NC(=O)[C@H](CC(C)C)NC(=O)[C@H](CC(C)C)NC(=O)OCc1ccccc1 [MG-132] (Cbz-Leu-Leu-Leu-aldehyde)
> 1000 nM

----------
tested on: OVCAR-4; test: cells; assay type: functional, cell-based, Homo sapiens; conditions: Homo sapiens, OVCAR-4
Description: SANGER: Inhibition of human OVCAR-4 cell growth in a cell viability assay.
Measured Attribute: IC50

Please review the entries below; each comes with its answer.
CN(C)CCOc1ccc(-c2nc(-c3ccncc3)c(-c3ccc4c(c3)CC/C4=N\O)[nH]2)cc1 : > 5000 nM
NC(=O)c1cccc(-c2cc(Nc3ccc(OC(F)(F)F)cc3)ncn2)c1 : > 1280 nM

// map CC1(C)CCC(c2ccc(Cl)cc2)=C(CN2CCN(c3ccc(C(=O)NS(=O)(=O)c4ccc(N[C@H](CCN5CCOCC5)CSc5ccccc5)c(S(=O)(=O)C(F)(F)F)c4)cc3)CC2)C1 to recorded IC50 (system: OVCAR-4);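 note: growth inhibition of human OVCAR-4 cells, measured with a cell viability assay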
> 2000 nM

----------
test system: NCI-H526; assay: cells; format: functional, cell-based, Homo sapiens; details: Homo sapiens, NCI-H526;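 note: growth inhibition of the human NCI-H526 cell line, measured by a cell viability assay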
Description: SANGER: Inhibition of human NCI-H526 cell growth in a cell viability assay.
pIC50: −log10 of the molar value.
Measured Attribute: pIC50

// worked examples, pIC50 included
C=CC(=O)N1CCCC(Nc2nc(Nc3ccc(N(C)C(=O)CC)cc3)nc3[nH]cnc23)C1 (stereo not given) : < 4.99
CC(C)C[C@H](NC(=O)[C@H](Cc1ccccc1)NC(=O)c1cnccn1)B(O)O [BORTEZOMIB] : < 7.70
CS(=O)(=O)N1CCN(Cc2cc3nc(-c4cccc5[nH]ncc45)nc(N4CCOCC4)c3s2)CC1 [PICTILISIB] : 5.72
Cc1ccc(C(=O)Nc2ccc(CN3CCN(C)CC3)c(C(F)(F)F)c2)cc1C#Cc1cnc2cccnn12 [PONATINIB] : < 6.29

As a next step, examine the compound that follows.
State its pIC50 on NCI-H526: CN(C)CCOc1ccc(-c2nc(-c3ccncc3)c(-c3ccc4c(c3)CC/C4=N\O)[nH]2)cc1 [SB590885]
< 5.30
